- target: T1, apical domain of cynomolgus CD71 (cynomolgus, UniProt A0A2K5X958 189-383)
- T1 construct: domain: apical domain; also called Cyno apical domain
- T1 sequence (A0A2K5X958 entry or part of it): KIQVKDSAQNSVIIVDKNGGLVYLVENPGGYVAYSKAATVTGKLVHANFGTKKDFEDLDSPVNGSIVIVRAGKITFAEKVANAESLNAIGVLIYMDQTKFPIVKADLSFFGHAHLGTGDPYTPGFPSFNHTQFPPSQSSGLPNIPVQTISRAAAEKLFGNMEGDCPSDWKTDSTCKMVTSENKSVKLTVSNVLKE
- test.description: primary ELISA; note: test concentration or dose not given here
I'd appreciate it if you could supply RLU values for the items below.
Hey, just the number and the unit after it is fine.

Q. # query: RLU of entry CD71-binding FN3 domain of SEQ ID NO: 158 (designed binder) MSLPAPKNLVVSRVTEDSARLSWTAPDAAFDSFEIAYFERTWFGEAIVLTVPGSERSYDLTGLKPGTEYWVQIGGVKGGDWSKPLSAIFTT
A. 4.63e+06 RLU

Q. Same read-out for CD71-binding FN3 domain of SEQ ID NO: 129 (designed binder) MGGSLPAPKNLVVSRVTEDSARLSWTAPDAAFDSFEIGYFENLYLGEAIVLTVPGSERSYDLTGLKPGTEYWVQIGGVKGGNWSAPLSAIFTT ?
A. 4.89e+06 RLU

Q. Same read-out for CD71-binding FN3 domain of SEQ ID NO: 148 (designed binder) MSLPAPKNLVVSRVTEDSARLSWTAPDAAFDSFEIVYQENSAYGEAIVLTVPGSERSYDLTGLKPGTEYWVQIGGVKGGEWSAPLSAIFTT ?
A. 4.72e+06 RLU

Q. Same read-out for CD71-binding FN3 domain of SEQ ID NO: 140 (designed binder) MSLPAPKNLVVSRVTEDSARLSWTAPDAAFDSFFIGYLEPQPPGEAIHLYVPGSERSYDLTGLKPGTEYNVTIQGVKGGFPSMPLSAIFTT ?
A. 7.01e+06 RLU

Q. Same read-out for CD71-binding FN3 domain of SEQ ID NO: 153 (designed binder) MSLPAPKNLVVSRVTEDSARLSWTAPDAAFDSFYIAYAEPRPDGEAIVLAVPGSERSYDLTGLKPGTEYSVLIHGVKGGLLSSPLGADFTT ?
A. 4.11e+06 RLU

Q. Same read-out for CD71-binding FN3 domain of SEQ ID NO: 157 (designed binder) MSLPAPKNLVVSRVTEDSARLSWTAPDAAFDSFEIGYGEFTYYGEAIVLTVPGSERSYDLTGLKPGTEYWVQIGGVKGGNWSNPLSAIFTT ?
A. 4.32e+06 RLU

Q. Same read-out for CD71-binding FN3 domain of SEQ ID NO: 168 (designed binder) MSLPAPKNLVVSRVTEDSARLSWTAPDAAFDSFIIGYLEPQPPDEAIALYVPGSERSYDLTGLKPGTEYNVTIQGVKGGFPSLPLVATFTT ?
A. 4.84e+06 RLU

Q. Same read-out for CD71-binding FN3 domain of SEQ ID NO: 166 (designed binder) MSLPAPKNLVVSRVTEDSARLSWTAPDAAFDSFEIGYFENLYLGEAIVLTVPGSERSYDLTGLKPGTEYWVQIGGIKGGNWSAPLSAIFTT ?
A. 5.02e+06 RLU

Q. Same read-out for CD71-binding FN3 domain of SEQ ID NO: 204 (designed binder) MSLPAPKNLVVSRVTEDSARLSWTAPDAAFDSFLIQYDEWPTYGEAIVLTVPGSERSYDLTGLKPGTEYLVEIVGVKGGNLSGPLSAIFTT ?
A. 5.46e+06 RLU
